Test system: 323965-272-R-J2-PDC complex spheroid growth, % test/control;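 further: compound exposure lasted 7 days starting three days after spheroid seeding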
Assay: Anticancer human tumor 323965-272-R-J2-PDC patient-derived pancreatic carcinoma cell line growth inhibition [Asc]
Details: curve of first compound; second compound 0.0316 µM
Excerpt: Multicellular complex tumor spheroid response to apoptosis pathway targeting inhibitors Alrizomadlin, Pelcitoclax, and Dasminapant in combination with a variety of drugs and investigational agents in selected tumor cell lines […] Compounds. […] If the clinical Cmax for an agent had not been determined, the highest concentration tested was 10 microM. […]
Catalogue of IC50 readings, one per entry.

[[record]]
molecule = "Cn1ncnc1[C@H]1c2n[nH]c(=O)c3cc(F)cc(c23)N[C@@H]1c1ccc(F)cc1 + Cc1c(S(C)(=O)=O)c(-c2cc(F)cc(N3CCN(c4ccc(NS(=O)(=O)c5ccc(NC(CCN6CCC(C(=O)OCCCP(=O)(O)O)CC6)CSc6ccccc6)c(S(=O)(=O)C(F)(F)F)c5)cc4)CC3)c2)c(-c2ccc(Cl)cc2)n1C(C)C"
measurement_label = "IC50"
value_reported = "> 0.1 µM"

[[record]]
molecule = "C#Cc1c(F)ccc2cc(O)cc(-c3ncc4c(N5CC6CCC(C5)N6)nc(OCC56CCCN5CC(F)C6)nc4c3F)c12 (centres undefined) + Cc1c(S(C)(=O)=O)c(-c2cc(F)cc(N3CCN(c4ccc(NS(=O)(=O)c5ccc(NC(CCN6CCC(C(=O)OCCCP(=O)(O)O)CC6)CSc6ccccc6)c(S(=O)(=O)C(F)(F)F)c5)cc4)CC3)c2)c(-c2ccc(Cl)cc2)n1C(C)C"
measurement_label = "IC50"
value_reported = "> 10 µM"

[[record]]
molecule = "NC1CCC(NC2CC2c2ccccc2)CC1 (centres undefined) + CNC(C)C(=O)NC1CN(S(=O)(=O)c2cccc(S(=O)(=O)N3CCC4CCC(C(=O)NC(c5ccccc5)c5ccccc5)N4C(=O)C(NC(=O)C(C)NC)C3)c2)CCC2CCC(C(=O)NC(c3ccccc3)c3ccccc3)N2C1=O"
measurement_label = "IC50"
value_reported = "> 0.1 µM"


Then this molecule:
Briefly, IC50 measured for Cc1nc(N2CCC3(CC2)COC(C)C3N)c(CO)nc1Sc1ccnc(N)c1Cl (centres undefined) + CNC(C)C(=O)NC1CN(S(=O)(=O)c2cccc(S(=O)(=O)N3CCC4CCC(C(=O)NC(c5ccccc5)c5ccccc5)N4C(=O)C(NC(=O)C(C)NC)C3)c2)CCC2CCC(C(=O)NC(c3ccccc3)c3ccccc3)N2C1=O : > 3 µM
